Parameter: inhibition. Scope: all listed entries.
target: Dihydroorotate dehydrogenase (quinone), mitochondrial (Homo sapiens)
Sequence (Q02127 whole entry): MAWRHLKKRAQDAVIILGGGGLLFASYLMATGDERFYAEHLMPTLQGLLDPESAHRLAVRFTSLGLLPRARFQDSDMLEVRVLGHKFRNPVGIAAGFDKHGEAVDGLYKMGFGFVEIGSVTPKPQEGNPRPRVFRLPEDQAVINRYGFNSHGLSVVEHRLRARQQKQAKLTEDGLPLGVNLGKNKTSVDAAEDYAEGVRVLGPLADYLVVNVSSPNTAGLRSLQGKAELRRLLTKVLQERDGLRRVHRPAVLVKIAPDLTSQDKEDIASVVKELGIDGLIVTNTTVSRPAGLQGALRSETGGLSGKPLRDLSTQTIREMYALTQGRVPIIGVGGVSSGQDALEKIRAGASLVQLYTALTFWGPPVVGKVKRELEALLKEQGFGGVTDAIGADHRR
measurementNotes: Inhibition of human N-terminal SUMO-tagged DHODH expressed in Escherichia coli BL21(DE3) at 1 uM using dihydroorotate as substrate by DCIP based microplate reader analysis relative to control
assayMetric: inhibition (%)

| compound | target | assayMetric | dataValue |
| --- | --- | --- | --- |
| CCC(CC)Oc1cc(NC(=O)/C(C#N)=C(/C)O)c(F)cc1-c1cccc(OC)c1 | Dihydroorotate dehydrogenase (quinone), mitochondrial (Homo sapiens) | inhibition | 98.1 |
| CCC(C)Oc1cc(NC(=O)/C(C#N)=C(/C)O)c(F)cc1-c1cc2ccccc2o1 (stereo not drawn) | Dihydroorotate dehydrogenase (quinone), mitochondrial (Homo sapiens) | inhibition | 97.4 |
| CCC(C)Oc1cc(NC(=O)/C(C#N)=C(/C)O)c(F)cc1-c1ccc2ccccc2c1 (stereo not drawn) | Dihydroorotate dehydrogenase (quinone), mitochondrial (Homo sapiens) | inhibition | 99.8 |
| C=CCOc1cc(NC(=O)/C(C#N)=C(/C)O)c(F)cc1-c1cccc(OC)c1 | Dihydroorotate dehydrogenase (quinone), mitochondrial (Homo sapiens) | inhibition | 92.5 |
| CCOc1cc(NC(=O)/C(C#N)=C(/C)O)c(F)cc1-c1cccc(OC)c1 | Dihydroorotate dehydrogenase (quinone), mitochondrial (Homo sapiens) | inhibition | 93.1 |
| CCC(C)Oc1cc(NC(=O)/C(C#N)=C(/C)O)c(F)cc1-c1cc(Cl)ccc1C (stereo not drawn) | Dihydroorotate dehydrogenase (quinone), mitochondrial (Homo sapiens) | inhibition | 85.5 |
| CCCOc1cc(NC(=O)/C(C#N)=C(/C)O)c(F)cc1-c1cccc(OC)c1 | Dihydroorotate dehydrogenase (quinone), mitochondrial (Homo sapiens) | inhibition | 93.6 |
| CCC(C)Oc1cc(NC(=O)/C(C#N)=C(/C)O)c(F)cc1-c1ccc(F)nc1 (stereo not drawn) | Dihydroorotate dehydrogenase (quinone), mitochondrial (Homo sapiens) | inhibition | 89.7 |
| CCC(C)Oc1cc(NC(=O)/C(C#N)=C(/C)O)c(F)cc1-c1ccccc1Cl (stereo not drawn) | Dihydroorotate dehydrogenase (quinone), mitochondrial (Homo sapiens) | inhibition | 98.8 |
| CCC(C)Oc1cc(NC(=O)/C(C#N)=C(/C)O)c(F)cc1-c1cccc2ccccc12 (stereo not drawn) | Dihydroorotate dehydrogenase (quinone), mitochondrial (Homo sapiens) | inhibition | 99.7 |
| CCC(C)Oc1cc(NC(=O)/C(C#N)=C(/C)O)c(F)cc1-c1cccc(F)c1C (stereo not drawn) | Dihydroorotate dehydrogenase (quinone), mitochondrial (Homo sapiens) | inhibition | 97.8 |
| CCC(C)Oc1cc(NC(=O)/C(C#N)=C(/C)O)c(F)cc1-c1cc(F)cc(F)c1 (stereo not drawn) | Dihydroorotate dehydrogenase (quinone), mitochondrial (Homo sapiens) | inhibition | 98.8 |
| CCC(C)Oc1cc(NC(=O)/C(C#N)=C(/C)O)c(F)cc1-c1ccc(Cl)cc1 (stereo not drawn) | Dihydroorotate dehydrogenase (quinone), mitochondrial (Homo sapiens) | inhibition | 95.4 |
| CCC(C)Oc1cc(NC(=O)/C(C#N)=C(/C)O)c(F)cc1-c1ccc(OC)cc1 (stereo not drawn) | Dihydroorotate dehydrogenase (quinone), mitochondrial (Homo sapiens) | inhibition | 94.7 |
| CCC(C)Oc1cc(NC(=O)/C(C#N)=C(/C)O)c(F)cc1-c1ccc2c(c1)OCO2 (stereo not drawn) | Dihydroorotate dehydrogenase (quinone), mitochondrial (Homo sapiens) | inhibition | 96.9 |
| CCC(C)Oc1cc(NC(=O)/C(C#N)=C(/C)O)c(F)cc1-c1cccc(OC)c1 (stereo not drawn) | Dihydroorotate dehydrogenase (quinone), mitochondrial (Homo sapiens) | inhibition | 99.2 |
| CCC(C)Oc1cc(NC(=O)/C(C#N)=C(/C)O)c(F)cc1-c1ccc(F)c(F)c1 (stereo not drawn) | Dihydroorotate dehydrogenase (quinone), mitochondrial (Homo sapiens) | inhibition | 97.5 |
| COc1cccc(-c2cc(F)c(NC(=O)/C(C#N)=C(/C)O)cc2OC)c1 | Dihydroorotate dehydrogenase (quinone), mitochondrial (Homo sapiens) | inhibition | 91.8 |
| CCC(C)Oc1cc(NC(=O)/C(C#N)=C(/C)O)c(F)cc1-c1ccccc1 (stereo not drawn) | Dihydroorotate dehydrogenase (quinone), mitochondrial (Homo sapiens) | inhibition | 96.9 |
| CCC(C)Oc1cc(NC(=O)/C(C#N)=C(/C)O)c(F)cc1-c1cccc(OC(F)(F)F)c1 (stereo not drawn) | Dihydroorotate dehydrogenase (quinone), mitochondrial (Homo sapiens) | inhibition | 99.2 |
| COc1cccc(-c2cc(F)c(NC(=O)/C(C#N)=C(/C)O)cc2OCC2CCCCC2)c1 | Dihydroorotate dehydrogenase (quinone), mitochondrial (Homo sapiens) | inhibition | 93.6 |
| COc1cccc(-c2ccc(NC(=O)/C(C#N)=C(/C)O)cc2OC)c1 | Dihydroorotate dehydrogenase (quinone), mitochondrial (Homo sapiens) | inhibition | 89.2 |
| CCC(C)Oc1cc(NC(=O)/C(C#N)=C(/C)O)c(F)cc1-c1ccnc(F)c1 (stereo not drawn) | Dihydroorotate dehydrogenase (quinone), mitochondrial (Homo sapiens) | inhibition | 98.5 |
| C=C(C)COc1cc(NC(=O)/C(C#N)=C(/C)O)c(F)cc1-c1cccc(OC)c1 | Dihydroorotate dehydrogenase (quinone), mitochondrial (Homo sapiens) | inhibition | 92.9 |
| CCCC(C)Oc1cc(NC(=O)/C(C#N)=C(/C)O)c(F)cc1-c1cccc(OC)c1 (stereo not drawn) | Dihydroorotate dehydrogenase (quinone), mitochondrial (Homo sapiens) | inhibition | 98.4 |
| CCC(C)Oc1cc(NC(=O)/C(C#N)=C(/C)O)c(F)cc1-c1cccc(F)c1 (stereo not drawn) | Dihydroorotate dehydrogenase (quinone), mitochondrial (Homo sapiens) | inhibition | 97.2 |
| CCC(C)Oc1cc(NC(=O)/C(C#N)=C(/C)O)c(F)cc1-c1ccccc1F (stereo not drawn) | Dihydroorotate dehydrogenase (quinone), mitochondrial (Homo sapiens) | inhibition | 97.3 |
| CCC(C)Oc1cc(NC(=O)/C(C#N)=C(/C)O)c(F)cc1-c1ccc(C(F)(F)F)cc1 (stereo not drawn) | Dihydroorotate dehydrogenase (quinone), mitochondrial (Homo sapiens) | inhibition | 77.2 |
| COc1cccc(-c2cc(F)c(NC(=O)/C(C#N)=C(/C)O)cc2OCc2c(F)cccc2Cl)c1 | Dihydroorotate dehydrogenase (quinone), mitochondrial (Homo sapiens) | inhibition | 79.7 |
| COc1cccc(-c2cc(F)c(NC(=O)/C(C#N)=C(/C)O)cc2OC(C)C)c1 | Dihydroorotate dehydrogenase (quinone), mitochondrial (Homo sapiens) | inhibition | 96.6 |
| CCC(C)Oc1cc(NC(=O)/C(C#N)=C(/C)O)c(F)cc1-c1cccc(Cl)c1 (stereo not drawn) | Dihydroorotate dehydrogenase (quinone), mitochondrial (Homo sapiens) | inhibition | 98.9 |
| CCC(C)Oc1cc(NC(=O)/C(C#N)=C(/C)O)c(F)cc1-c1cccc(Cl)c1C (stereo not drawn) | Dihydroorotate dehydrogenase (quinone), mitochondrial (Homo sapiens) | inhibition | 98 |
| C/C(O)=C(\C#N)C(=O)Nc1ccc(C(F)(F)F)cc1 | Dihydroorotate dehydrogenase (quinone), mitochondrial (Homo sapiens) | inhibition | 71.2 |
| COc1cccc(-c2cc(F)c(NC(=O)/C(C#N)=C(/C)O)cc2OCC(C)C)c1 | Dihydroorotate dehydrogenase (quinone), mitochondrial (Homo sapiens) | inhibition | 96.2 |
| CCC(C)Oc1cc(NC(=O)/C(C#N)=C(/C)O)c(F)cc1-c1cccc(C(F)(F)F)c1 (stereo not drawn) | Dihydroorotate dehydrogenase (quinone), mitochondrial (Homo sapiens) | inhibition | 99.3 |
| CCC(C)Oc1cc(NC(=O)/C(C#N)=C(/C)O)c(F)cc1-c1ccccc1C (stereo not drawn) | Dihydroorotate dehydrogenase (quinone), mitochondrial (Homo sapiens) | inhibition | 96.6 |
| CCC(C)Oc1cc(NC(=O)/C(C#N)=C(/C)O)c(F)cc1-c1ccc(F)cc1 (stereo not drawn) | Dihydroorotate dehydrogenase (quinone), mitochondrial (Homo sapiens) | inhibition | 96.1 |
| COc1cccc(-c2cc(F)c(NC(=O)/C(C#N)=C(/C)O)cc2OCc2ccccc2F)c1 | Dihydroorotate dehydrogenase (quinone), mitochondrial (Homo sapiens) | inhibition | 89.8 |

====

Measured IC50 on Dihydroorotate dehydrogenase (quinone), mitochondrial (Homo sapiens) follows.
assayMetric: IC50 (nM)

| compound | assayMetric | dataValue |
| --- | --- | --- |
| CCC(C)Oc1cc(NC(=O)/C(C#N)=C(/C)O)c(F)cc1-c1cccc(F)c1 (centres undefined) | IC50 | 26.8 |
| CCC(C)Oc1cc(NC(=O)/C(C#N)=C(/C)O)c(F)cc1-c1ccccc1 (centres undefined) | IC50 | 28.9 |
| CCC(C)Oc1cc(NC(=O)/C(C#N)=C(/C)O)c(F)cc1-c1ccccc1F (centres undefined) | IC50 | 27.3 |
| CCC(C)Oc1cc(NC(=O)/C(C#N)=C(/C)O)c(F)cc1-c1ccc(F)cc1 (centres undefined) | IC50 | 37.8 |
| C/C(O)=C(\C#N)C(=O)Nc1cc(OC(C)C)c(-c2cccc(C(F)(F)F)c2)cc1F | IC50 | 10.2 |
| CCC(C)Oc1cc(NC(=O)/C(C#N)=C(/C)O)c(F)cc1-c1cccc2ccccc12 (centres undefined) | IC50 | 9.8 |
| CCC(C)Oc1cc(NC(=O)/C(C#N)=C(/C)O)c(F)cc1-c1cccc(F)c1C (centres undefined) | IC50 | 26.1 |
| CCC(C)Oc1cc(NC(=O)/C(C#N)=C(/C)O)c(F)cc1-c1ccc2ccccc2c1 (centres undefined) | IC50 | 6.6 |
| CCCC(C)Oc1cc(NC(=O)/C(C#N)=C(/C)O)c(F)cc1-c1cccc(OC)c1 (centres undefined) | IC50 | 14.4 |

These entries and their values trace back to ChEMBL document CHEMBL5137035.
